B1: Gamma-crystallin D, residues 90 to 170; numbered along this chain, P07320 (parent)
chain: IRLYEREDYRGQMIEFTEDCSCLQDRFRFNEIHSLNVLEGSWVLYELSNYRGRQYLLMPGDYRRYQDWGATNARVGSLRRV

Variants of: B1
assay name: abundance fitness (aPCA) (normalised: wild type 0, dead -1); higher = more abundant; growth selection in yeast, the domain comes from the species named
test context: Homo sapiens
Please note: yes applies when abundance fitness is 0.03 or greater, and no applies otherwise.

Can Y45G be said to have abundance fitness at or above 0.03?
no

R51C ?
no

R10A ?
no

N36I ?
no

R2T ?
no

V37E ?
no

L44Q ?
no

R26Q ?
yes

R53A ?
yes

D8V ?
no

E5I ?
yes

S48E ?
yes

L35R ?
no

I14V ?
no

N49Y ?
no

R53K ?
yes

G40T ?
no

L47E ?
no

R53Q ?
yes

Q54H ?
no

L35Y ?
no

M58C ?
yes

D19P ?
no

L35T ?
no

F27K ?
no

E5M ?
yes
